procedure text: self-splicing fitness, log relative to wild type (ln ratio); higher = more splicing; Tetrahymena group I intron in knt gene, E. coli kanamycin selection, DiMSum; sequences stand for … in CUCUCU…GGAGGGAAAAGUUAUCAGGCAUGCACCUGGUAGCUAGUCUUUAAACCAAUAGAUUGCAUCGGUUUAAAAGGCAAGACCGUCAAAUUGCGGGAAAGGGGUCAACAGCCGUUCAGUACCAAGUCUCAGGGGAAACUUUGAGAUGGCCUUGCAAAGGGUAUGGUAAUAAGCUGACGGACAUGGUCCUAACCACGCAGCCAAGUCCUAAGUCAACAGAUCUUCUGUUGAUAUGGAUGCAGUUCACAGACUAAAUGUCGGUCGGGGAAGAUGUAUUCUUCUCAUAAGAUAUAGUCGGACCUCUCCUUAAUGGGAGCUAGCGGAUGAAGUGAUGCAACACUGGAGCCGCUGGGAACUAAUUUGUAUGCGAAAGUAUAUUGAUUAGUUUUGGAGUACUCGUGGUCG;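 note: selection with 25 µg/mL kanamycin versus none on LB agar overnight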
condition summary: 37 °C
Categories are defined by ranges of self-splicing fitness (ln), namely bucket A (below -2), bucket B (-2 to below -1), bucket C (-1 or more)

GAAGAGCAAUAUUACGUGGU bucket A
GGAUAGCAAUAUUACGAACC bucket B
GAUUAGCAAUAUUACGACUU bucket C
UGGUAGCAAUAUUACGCCAA bucket C
UUGCAGCAAUAUUACGUCAC bucket B
GCCCAGCAAUAUUACGAUGC bucket C

# input Input GUGCAGCAAUAUUACGCCCG ; output its category
# output bucket B

# input For UGAGAGCAAUAUUACGAUUU then?
# output bucket A

# input Next entry: UGCUAGCAAUAUUACGGAAG
# output bucket A

---

// self-splicing fitness (ln) lookup, one value per entry
procedure text: self-splicing fitness, log relative to wild type (ln ratio); higher = more splicing; Tetrahymena group I intron in knt gene, E. coli kanamycin selection, DiMSum; sequences stand for … in CUCUCU…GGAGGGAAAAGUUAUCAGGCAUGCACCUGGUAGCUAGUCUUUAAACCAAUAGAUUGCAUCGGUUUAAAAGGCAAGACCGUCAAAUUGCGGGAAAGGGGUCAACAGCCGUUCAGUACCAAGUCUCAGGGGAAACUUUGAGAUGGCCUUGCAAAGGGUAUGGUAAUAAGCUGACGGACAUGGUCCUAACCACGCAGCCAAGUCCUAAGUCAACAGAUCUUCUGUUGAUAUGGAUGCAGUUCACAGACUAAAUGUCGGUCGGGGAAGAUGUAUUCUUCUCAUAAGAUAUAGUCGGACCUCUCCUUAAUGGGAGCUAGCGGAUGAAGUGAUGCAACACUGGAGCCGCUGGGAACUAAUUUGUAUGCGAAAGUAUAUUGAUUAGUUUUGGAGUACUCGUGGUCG
condition summary: 37 °C
Form field (numeric): enter value without unit.

Use these answered entries as a reference point.
ACCCAGCAAUAUUACGCGCU -1.36
UUGAAGCAAUAUUACGCGGC -0.671

# input // lookup self-splicing fitness (ln) for AAGGAGCAAUAUUACGGAUU
# output -1.69

# input Another sequence to look at: UACUAGCAAUAUUACGUGAC
# output -1.93

# input Param item: UGGUAGCAAUAUUACGCAGA
# output -0.684

---

Listed sequences paired with reported self-splicing fitness (ln)
procedure text: self-splicing fitness, log relative to wild type (ln ratio); higher = more splicing; Tetrahymena group I intron in knt gene, E. coli kanamycin selection, DiMSum; sequences stand for … in CUCUCU…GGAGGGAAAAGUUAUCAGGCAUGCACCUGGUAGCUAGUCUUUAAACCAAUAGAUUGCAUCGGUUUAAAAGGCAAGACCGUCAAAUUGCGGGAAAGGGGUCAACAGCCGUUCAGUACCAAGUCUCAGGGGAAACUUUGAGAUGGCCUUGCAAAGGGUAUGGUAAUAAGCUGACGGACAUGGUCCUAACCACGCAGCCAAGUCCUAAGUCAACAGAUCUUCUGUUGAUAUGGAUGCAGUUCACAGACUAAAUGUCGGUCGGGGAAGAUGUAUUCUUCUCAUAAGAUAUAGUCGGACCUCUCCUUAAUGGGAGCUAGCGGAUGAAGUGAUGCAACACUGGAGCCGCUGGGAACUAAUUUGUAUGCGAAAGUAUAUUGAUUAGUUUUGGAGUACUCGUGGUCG
condition summary: 37 °C
Give the value as a plain number.

The following sequences have reported results that may help.
UACUAGCAAUAUUACGCAAC -1.85
GGGCAGCAAUAUUACGUGCG -0.235
CGAAAGCAAUAUUACGCACA -0.358
UUUUAGCAAUAUUACGACAG 0.172

Continue with the next sequence.
# input # query: self-splicing fitness (ln) of entry AGGUAGCAAUAUUACGCCCC
# output -1.56
